target: BTK, recombinant human catalytic domain (aa 393-659) (Homo sapiens (Human)); test: In vitro BTK kinase activity measured by time-resolved fluorescence resonance energy transfer (trFRET); format: biochemical; conditions: read-out: Btk IC50
REPORTED_PROPERTY: IC50

Here's what some known entries look like.
[[record]]
compound = "Cc1c(NC(=O)CC#N)cccc1-c1ccc(C(N)=O)c2[nH]c(C3=CCN(S(C)(=O)=O)CC3)cc12 [D.7.4]"
measurement = "< 0.1 µM"

[[record]]
compound = "C=CC(=O)N1CC(N(C)c2ccc(C(N)=O)c3[nH]c(-c4ccc(N5CCOCC5)nc4)cc23)C1 [E.9.10]"
measurement = "< 0.1 µM"

[[record]]
compound = "Cc1c(NC(=O)c2cccnc2)cccc1-c1ccc(C(N)=O)c2[nH]c(C3=CCN(S(C)(=O)=O)CC3)cc12 [D.7.39]"
measurement = "< 0.1 µM"

[[record]]
compound = "NC(=O)c1ccc(N2CCC[C@@H](NC(=O)c3ccc(C(F)(F)F)cc3)C2)c2cc[nH]c12 [O.1.8*]"
measurement = "1 to 10 µM"


Recorded IC50 for C=CC(=O)N1CC(N(C)c2ccc(C(N)=O)c3[nH]c(C4(O)COC4)cc23)C1 [E.9.1.1] , please?
0.1 to 1 µM

Recorded IC50 for Cc1c(NC(=O)COc2cccnn2)cccc1-c1ccc(C(N)=O)c2[nH]c(C3=CCN(S(C)(=O)=O)CC3)cc12 [D.7.28] , please?
< 0.1 µM

Recorded IC50 for C=CC(=O)Nc1ccccc1-c1ccc(C(N)=O)c2[nH]ccc12 [E.1.2] , please?
1 to 10 µM

###

molecular target: BTK, recombinant human catalytic domain (aa 393-659) (Homo sapiens (Human), UniProt Q06187); assay: In vitro BTK kinase activity measured by time-resolved fluorescence resonance energy transfer (trFRET); type: biochemical; settings: trFRET, 0.001 mM ATP, biotin-TYR1 peptide substrate; read-out: Btk IC50
Sequence (Q06187 393-659): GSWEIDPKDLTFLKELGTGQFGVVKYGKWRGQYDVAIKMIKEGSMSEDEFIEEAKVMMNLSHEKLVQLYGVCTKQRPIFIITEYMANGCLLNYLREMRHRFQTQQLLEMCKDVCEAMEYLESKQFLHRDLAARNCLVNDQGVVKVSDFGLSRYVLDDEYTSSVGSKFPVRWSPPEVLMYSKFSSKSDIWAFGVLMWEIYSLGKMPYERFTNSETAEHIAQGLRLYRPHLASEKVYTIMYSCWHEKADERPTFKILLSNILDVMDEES
// values below are reported IC50

[[record]]
chem_smiles = "C#CC(=O)NCc1ccccc1-c1cc2c(-c3cccc(NC(=O)c4nccs4)c3C)ccc(C(N)=O)c2[nH]1"
measurement = "100 to 1000 nM"

[[record]]
chem_smiles = "C=CC(=O)Nc1cccc(-c2ccc(C(N)=O)c3[nH]c(-c4cccc(OC)c4)cc23)c1C"
measurement = "< 100 nM"

[[record]]
chem_smiles = "C=CC(=O)Nc1cccc(-c2ccc(C(N)=O)c3[nH]c(-c4cccc(C(N)=O)c4)cc23)c1C"
measurement = "< 100 nM"


Kindly consider the entry below.
Recorded IC50 for `Cc1c(NC(=O)c2nccs2)cccc1-c1ccc(C(N)=O)c2[nH]cc(NC(=O)CC#N)c12` , please?
1000 to 10000 nM

###

target: BTK, recombinant human catalytic domain (aa 393-659) (Homo sapiens (Human)); assay: In vitro BTK kinase activity measured by time-resolved fluorescence resonance energy transfer (trFRET); type: biochemical; conditions: trFRET, 0.001 mM ATP, biotin-TYR1 peptide substrate; read-out: Btk IC50
pIC50: −log10 of the molar value.
// values below are reported pIC50

[[record]]
molecule = "Cc1c(NC(=O)c2cc3c(s2)CCCC3)cccc1-c1ccc(C(N)=O)c2[nH]c(-c3ccc(F)cc3)cc12"
assayed_target = "BTK, recombinant human catalytic domain (aa 393-659) (Homo sapiens (Human))"
measurement = "5.00 to 6.00"


Tell me reported pIC50 for `C=CC(=O)Nc1cccc(-c2ccc(C(N)=O)c3[nH]c(-c4ccc(N5CCOCC5)nc4)cc23)c1C` , tested with BTK, recombinant human catalytic domain (aa 393-659) (Homo sapiens (Human)).
> 7.00

Tell me reported pIC50 for `C=CC(=O)Nc1cccc(-c2ccc(C(N)=O)c3[nH]c(-c4cc(S(=O)(=O)N5CCCC5)ccc4C)cc23)c1C` , tested with BTK, recombinant human catalytic domain (aa 393-659) (Homo sapiens (Human)).
6.00 to 7.00

Tell me reported pIC50 for `C/C=C/C(=O)Nc1c[nH]c2c(C(N)=O)ccc(-c3cccc(NC(=O)c4nccs4)c3C)c12` , tested with BTK, recombinant human catalytic domain (aa 393-659) (Homo sapiens (Human)).
5.00 to 6.00

Tell me reported pIC50 for `Cc1c(-c2ccc(C(N)=O)c3[nH]c(-c4cnn(C[C@@H](O)CO)c4)cc23)cccc1-n1cnc2ccccc2c1=O` , tested with BTK, recombinant human catalytic domain (aa 393-659) (Homo sapiens (Human)).
> 7.00

Tell me reported pIC50 for `Cc1c(-c2ccc(C(N)=O)c3[nH]c(-c4cncnc4)cc23)cccc1-n1cnc2ccccc2c1=O` , tested with BTK, recombinant human catalytic domain (aa 393-659) (Homo sapiens (Human)).
6.00 to 7.00

Tell me reported pIC50 for `Cc1c(NC(=O)c2nccs2)cccc1-c1ccc(C(N)=O)c2[nH]cc(C)c12` , tested with BTK, recombinant human catalytic domain (aa 393-659) (Homo sapiens (Human)).
6.00 to 7.00

Tell me reported pIC50 for `C=CC(=O)Nc1cccc(-c2ccc(C(N)=O)c3[nH]c(-c4c(C)noc4C)cc23)c1C` , tested with BTK, recombinant human catalytic domain (aa 393-659) (Homo sapiens (Human)).
6.00 to 7.00

Tell me reported pIC50 for `C=CC(=O)Nc1cccc(-c2ccc(C(N)=O)c3[nH]c(CC)cc23)c1` , tested with BTK, recombinant human catalytic domain (aa 393-659) (Homo sapiens (Human)).
> 7.00
